conditionsUsed: 328.15 K; 25000 kPa; Liquid; Vibrating tube method
endpoint: mass density (kg/m3)

Param item = CCCCCCCC[n+]1cccc(C)c1.F[B-](F)(F)F [N-octyl-3-methylpyridinium tetrafluoroborate] ; retrieve measured mass density.
1089.05

Which measured mass density value corresponds to CCCC[n+]1ccccc1.O=S(=O)([O-])C(F)(F)F [1-butylpyridinium trifluoromethanesulfonate] ?
1306.75

Give the measured mass density of CCCC[n+]1ccccc1.F[B-](F)(F)F [1-butylpyridinium tetrafluoroborate] .
1205.08

Looking for the measured mass density of CCC[n+]1ccccc1Oc1ccc(Cl)c[n+]1CCOS(=O)(=O)[O-].F[B-](F)(F)F , can you help?
1243.01

// returns reported mass density for input CCCC[n+]1cccc(C)c1.N#C[N-]C#N [1-butyl-3-methylpyridinium dicyanamide]
1041.31

Source listed as the NIST ThermoML archive (doi:10.1016/j.fluid.2011.12.029).
